Target: TRKC (Homo sapiens, UniProt Q16288)
Construct: purchased DiscoverX (KINOMEscan)
Sequence (Q16288 32-839): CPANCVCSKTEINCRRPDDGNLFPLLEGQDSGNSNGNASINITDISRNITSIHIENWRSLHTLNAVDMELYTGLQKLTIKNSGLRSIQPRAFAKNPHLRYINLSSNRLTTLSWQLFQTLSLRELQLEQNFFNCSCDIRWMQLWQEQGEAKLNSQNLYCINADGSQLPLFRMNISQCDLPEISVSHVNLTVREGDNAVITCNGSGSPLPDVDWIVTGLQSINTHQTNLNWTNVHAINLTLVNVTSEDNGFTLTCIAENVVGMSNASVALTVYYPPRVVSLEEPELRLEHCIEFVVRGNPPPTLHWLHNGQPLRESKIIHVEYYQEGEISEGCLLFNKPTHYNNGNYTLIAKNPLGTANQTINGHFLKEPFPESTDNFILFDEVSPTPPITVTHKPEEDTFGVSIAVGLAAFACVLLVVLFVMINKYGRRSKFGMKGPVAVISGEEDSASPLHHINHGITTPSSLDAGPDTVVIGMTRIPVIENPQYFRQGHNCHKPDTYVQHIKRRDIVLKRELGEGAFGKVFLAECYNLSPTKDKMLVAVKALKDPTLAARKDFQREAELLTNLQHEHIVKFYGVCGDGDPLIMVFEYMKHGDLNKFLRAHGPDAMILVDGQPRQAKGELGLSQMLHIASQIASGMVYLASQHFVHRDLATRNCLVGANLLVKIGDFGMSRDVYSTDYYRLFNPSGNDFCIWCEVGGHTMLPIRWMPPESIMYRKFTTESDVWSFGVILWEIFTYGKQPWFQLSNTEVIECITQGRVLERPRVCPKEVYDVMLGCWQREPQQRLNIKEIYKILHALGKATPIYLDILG
Experiment: KINOMEscan competitive binding
Conditions: n=1, read-out: Percent inhibition, TRKC
Form field: inhibition at 10 µM (one value per entry).
measurement name: inhibition at 10 µM (%)

c1ccc(COc2cccc(-c3ccnc4[nH]ccc34)c2)cc1 | 0
COc1cc(Nc2nccc(-c3sc(N)nc3-c3cccc(NC(=O)c4c(F)cccc4F)c3)n2)cc(OC)c1OC | 0
Clc1ccc(Nc2ncc(-c3ccccc3)s2)cc1 | 0
COc1ccc(Nc2nccc(-c3cnn4ncccc34)n2)cc1 | 0

###

Below, each entry is listed with its recorded inhibition at 10 µM.
Molecular target: YSK1 (Homo sapiens)
Construct: purchased DiscoverX (KINOMEscan)
Sequence (O00506 whole entry): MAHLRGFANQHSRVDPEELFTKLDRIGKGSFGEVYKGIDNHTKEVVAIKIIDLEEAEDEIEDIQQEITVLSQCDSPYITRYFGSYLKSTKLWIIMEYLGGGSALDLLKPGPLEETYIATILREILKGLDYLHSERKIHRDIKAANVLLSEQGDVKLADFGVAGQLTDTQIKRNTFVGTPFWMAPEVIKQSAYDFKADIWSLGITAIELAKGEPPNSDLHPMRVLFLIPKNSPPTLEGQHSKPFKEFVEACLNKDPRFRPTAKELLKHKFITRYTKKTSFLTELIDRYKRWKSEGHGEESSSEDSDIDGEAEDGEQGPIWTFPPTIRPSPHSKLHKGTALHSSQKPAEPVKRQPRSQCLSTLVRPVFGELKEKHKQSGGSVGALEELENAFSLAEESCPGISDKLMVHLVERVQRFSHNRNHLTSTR
Assay: KINOMEscan competitive binding
Conditions: n=1, read-out: Percent inhibition, YSK1
measurement name: inhibition at 10 µM (%)

COc1ccc(Nc2nccc(-c3cnn4ncccc34)n2)cc1 | 0
Nc1ncc2c(-c3ccncc3)c[nH]c2n1 | 0
CN1CCN(c2ccc(Nc3nccc(-c4cnn5ncccc45)n3)cc2C#N)CC1 | 90.8
Clc1ccc(Nc2ncc(-c3ccccc3)s2)cc1 | 0
C[C@@H](Oc1cc(-c2cnc3ccccn23)sc1C(N)=O)c1ccccc1Cl | 0
Cc1ccc(O)cc1N(C)c1ccnc(Nc2cccc(S(N)(=O)=O)c2)n1 | 0
